Target: Type-2 angiotensin II receptor (Homo sapiens, UniProt P50052); also: in other assays of this panel Not Active means under 50% inhibition at 10 µM
Sequence (P50052 whole entry): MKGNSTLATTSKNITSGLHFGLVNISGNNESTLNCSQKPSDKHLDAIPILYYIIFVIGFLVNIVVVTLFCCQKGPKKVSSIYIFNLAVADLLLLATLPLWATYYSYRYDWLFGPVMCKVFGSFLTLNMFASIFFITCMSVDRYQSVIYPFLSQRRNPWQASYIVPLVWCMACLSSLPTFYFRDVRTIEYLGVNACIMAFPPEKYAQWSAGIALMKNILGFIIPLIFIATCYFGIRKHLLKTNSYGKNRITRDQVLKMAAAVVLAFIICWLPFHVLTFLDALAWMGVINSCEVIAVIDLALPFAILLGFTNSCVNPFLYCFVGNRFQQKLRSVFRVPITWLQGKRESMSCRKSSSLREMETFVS
Test: biochemical
Assay type: cell-based, CHO-K1
Settings: cho-k1
property: IC50

{"columns": ["molecule", "property", "endpoint_value"],
 "data": [
  ["O=c1c(-c2ccc(O)cc2)coc2cc(O)cc(O)c12", "IC50", "Not Active"],
  ["NC(=O)N1c2ccccc2CC(=O)c2ccccc21 [OXCARBAZEPINE]", "IC50", "Not Active"],
  ["CC(O)(P(=O)(O)O)P(=O)(O)O", "IC50", "Not Active"],
  ["CCCCC1=NC2(CCCC2)C(=O)N1Cc1ccc(-c2ccccc2-c2nnn[nH]2)cc1", "IC50", "Not Active"],
  ["CCCCC(=O)N(Cc1ccc(-c2ccccc2-c2nnn[nH]2)cc1)[C@H](C(=O)O)C(C)C", "IC50", "Not Active"],
  ["CC1=NN(c2ccccc2)C(=O)C1", "IC50", "Not Active"],
  ["COc1cccc2c1C(=O)c1c(O)c3c(c(O)c1C2=O)C[C@@](O)(C(C)=O)C[C@@H]3O[C@H]1C[C@H](N)[C@H](O)[C@H](C)O1", "IC50", "Not Active"],
  ["O=c1[nH]c(=O)n(C2CCCO2)cc1F (centres undefined)", "IC50", "Not Active"],
  ["N=C(N)c1ccc(OCCCCCOc2ccc(C(=N)N)cc2)cc1", "IC50", "Not Active"],
  ["OCCOCCN1CCN(C2=Nc3ccccc3Sc3ccccc32)CC1", "IC50", "Not Active"],
  ["O=C(c1ccccc1F)N1CCC(Cc2ccccc2)CC1", "IC50", "Not Active"],
  ["CN1CCN(C(c2ccccc2)c2ccccc2)CC1", "IC50", "Not Active"],
  ["N[C@@H](Cn1ccc(=O)c(O)c1)C(=O)O", "IC50", "Not Active"],
  ["Oc1ccc2c3c1O[C@H]1[C@@H](O)CC[C@@]4(O)[C@@H](C2)N(CC2CCC2)CC[C@]314", "IC50", "Not Active"],
  ["C[C@]12C=CC(=O)C=C1CC[C@@H]1[C@@H]2C(=O)C[C@@]2(C)[C@H]1CC[C@]2(O)C(=O)CO", "IC50", "Not Active"],
  ["COc1ccccc1N", "IC50", "Not Active"],
  ["CC(=N)S [THIOACETAMIDE]", "IC50", "Not Active"],
  ["CN1[C@@H]2CC[C@H]1C[C@@H](OC(c1ccccc1)c1ccccc1)C2", "IC50", "Not Active"],
  ["CC(C)C[C@H]1C(=O)N2CCC[C@H]2[C@]2(O)O[C@](NC(=O)[C@@H]3C=C4c5cccc6[nH]cc(c56)C[C@H]4N(C)C3)(C(C)C)C(=O)N12", "IC50", "Not Active"]
]}
